Source listed as paper PMC12013189.

# EXPERIMENTAL_TARGET: T1, FAT-H14 (hFAK904-1052 with I936A, H1025A, K1032A) (human, UniProt Q05397 904-1052, I936A | H1025A | K1032A)
# T1 sequence: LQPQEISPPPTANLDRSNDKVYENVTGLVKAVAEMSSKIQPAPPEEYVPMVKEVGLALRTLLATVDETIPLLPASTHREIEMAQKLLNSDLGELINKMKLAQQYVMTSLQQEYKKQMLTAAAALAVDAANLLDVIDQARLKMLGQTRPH
# ASSAY: FP
Ends that are not written are not given here.
Provide the reported Kd of each item.
Give the number; µM is assumed, so skip it.

(Q) Given the binder MDDLDALLADLES (also: FITC label, position not given here) [paxillin LD1 peptide] , what is its reported Kd?
(A) 31.4

(Q) Given the binder ATRELDELMASLS (also: FITC label, position not given here) [paxillin LD4 peptide] , what is its reported Kd?
(A) 3.6

(Q) Given the binder SNLSELDRLLLELNAVQHN (also: FITC label, position not given here) [paxillin LD2 peptide] , what is its reported Kd?
(A) 13.3

(Q) Given the binder paxillin LD2/4 peptide (LD2 and LD4 motifs separated by a designed linker) (also: FITC label, position not given here) SNLSELDRLLLELNAVQHNGSGSGGSGGSGGSGGSGGSGGSGGSGGSATRELDELMASLSD , what is its reported Kd?
(A) 5.8
